meta.source: paper PMC9290002

Target: human cathepsin L (hCatL) (Homo sapiens)
Sequence (P07711 114-333): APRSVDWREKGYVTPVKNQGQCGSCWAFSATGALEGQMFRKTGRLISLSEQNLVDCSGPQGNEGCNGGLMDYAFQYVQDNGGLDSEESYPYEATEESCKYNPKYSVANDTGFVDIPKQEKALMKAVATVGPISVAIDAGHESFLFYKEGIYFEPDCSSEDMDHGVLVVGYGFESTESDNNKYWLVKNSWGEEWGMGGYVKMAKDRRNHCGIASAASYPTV
Assay: Enzyme assay towards hCatL
Format: biochemical
quantity-measured: hCatL k2nd

CC(=O)/C=C/[C@H](CCc1ccccc1)NC(=O)[C@H](CC(C)C)NC(=O)Nc1ccc(C)cc1 [compound 25]	2120 ± 6 x 103M-1 min-1
CC(=O)/C=C/[C@H](CCc1ccccc1)NC(=O)[C@H](Cc1ccccc1)NC(=O)Nc1c(F)cccc1F [compound 5]	326 ± 8 x 103M-1 min-1
CC(=O)/C=C/[C@H](CCc1ccccc1)NC(=O)[C@H](Cc1ccccc1)NC(=O)Nc1ccc(Cl)cc1C(F)(F)F [compound 8]	256 ± 71 x 103M-1 min-1

# hCatL k2nd (compound: CC(=O)/C=C/[C@H](CCc1ccccc1)NC(=O)[C@H](CC(C)C)NC(=O)Nc1ccc(Cl)cc1C [compound 26] ) is 14240 ± 5410 x 103M-1 min-1
